What follows is a collection of IC50 values obtained with full-length human PKC-α enzyme (Homo sapiens).
Provide only the numeric value, understood in nM.

Lookup: IC50 / full-length human PKC-α enzyme (Homo sapiens) / CN(C)CCCNc1ccnc(Nc2ccc(Cl)c(Cl)c2)n1
15

GET /values?readout=IC50&system=full-length human PKC-α enzyme (Homo sapiens)&item= COc1cccc(Nc2nccc(NCCCN(C)C)n2)c1
14

Query IC50 on full-length human PKC-α enzyme (Homo sapiens) for CN(C)CCCNc1ccnc(Nc2ccc(F)c(Cl)c2)n1
8

* * *

Biological target: full-length human PKC-α enzyme (Homo sapiens, UniProt P17252)
Listed here: items and their measured IC50.
Answer in µM, number only, no unit symbol.

# example entries with known answers
1. CN(C)CCCNc1ccnc(Nc2ccc(F)c(F)c2)n1 [compound 33]    0.065
2. CN(C)CCCCNc1ccnc(Nc2cccc(Cl)c2)n1 [compound 81]    0.012
3. Cc1ccc(Nc2nccc(NCCCN(C)C)n2)cc1Cl [compound 21]    0.003

Quick check: IC50 of CN(C)CCCNc1ccnc(Nc2ccc(Cl)c(C(F)(F)F)c2)n1 [compound 45] ?
0.003

Can you look up the measured IC50 of Cc1cccc(Nc2nccc(NCCCN(C)C)n2)c1 [compound 58] for me?
0.093
